# Test system: Mycolicibacterium smegmatis
# test.name: Antimicrobial activity against Mycobacterium smegmatis incubated for 4 days by broth microdilution method
# Format: functional
# protocol.conditions: 96 h
endpoint: MIC (mg/L)
Give bare numbers, in mg/L.

Provide MIC for all items below, preserving their order.
1. O=C(O)c1cn(C2CC2)c2cc(N3CCNCC3)c(F)cc2c1=O
2. COc1ccc(C[C@@H]2COc3cc(O)cc(O)c3C2=O)cc1O

2
17

----------
# Test system: HT-29
# test.name: Cytotoxicity against human HT-29 cells assessed as reduction in cell growth incubated for 72 hrs
# Format: functional, cell-based
# protocol.conditions: HT-29, 72 h
pIC50: −log10 of the molar value.
What pIC50 was measured for each of the following?

                                 mol_smiles  test_value
0   O=C1/C(=C/c2ccc(O)cc2)COc2cc(O)cc(O)c21      < 4.70
1  COc1cc2c(c(O)c1O)C(=O)[C@H](Cc1ccc(O)cc1)CO2      < 4.70
2  COc1cc(O)c2c(c1OC)OC[C@@H](Cc1ccc(O)c(O)c1)C2=O      < 4.70

Moving on to the next compound.
Memo: COc1ccc(C[C@@H]2COc3c(OC)c(OC)cc(O)c3C2=O)cc1O , reported pIC50: 4.76

From: ChEMBL document CHEMBL3593169
